# Target Under Test: DCAF1 WD40 domain (residues 1077-1390) (Homo sapiens, UniProt Q9Y4B6)
# Construct: DCAF1 WD40 domain (residues 1077-1390)
# Sequence (Q9Y4B6 1077-1390): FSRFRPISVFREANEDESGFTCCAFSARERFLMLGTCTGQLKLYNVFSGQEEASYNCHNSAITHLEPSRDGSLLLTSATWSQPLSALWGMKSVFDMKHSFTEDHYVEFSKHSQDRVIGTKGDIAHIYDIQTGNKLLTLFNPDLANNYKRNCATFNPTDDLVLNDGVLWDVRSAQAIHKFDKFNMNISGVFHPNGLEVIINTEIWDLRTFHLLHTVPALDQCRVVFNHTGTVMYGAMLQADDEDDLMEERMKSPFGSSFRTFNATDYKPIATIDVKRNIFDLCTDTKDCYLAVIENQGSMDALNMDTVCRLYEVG
# Assay Method Text: DCAF1 binding assay by SPR (Biacore 8K+), DCAF1-3 KD
# Condition Description: 25 °C, read-out: DCAF1-3 SPR (KD)
Measurement Name: Kd

Molecule	Endpoint Value
Cc1sc2c(c1C)C(c1ccc(Cl)cc1)=N[C@@H](CC(=O)NCCOCCOCCOCCOCCOCCOCCn1ncc(C(=O)N[C@@H](CC(N)=O)c3cccc(Cl)c3)c1-c1ccccc1F)c1nnc(C)n1-2 [I-492]	> 200 µM
O=CNc1ccc(N2CCC[C@@H]3[C@H]2CCN3c2cc(N3CCCCC3)ccn2)cc1F [I-761]	> 200 µM
Cc1ccccc1-c1[nH]ncc1C(=O)N[C@@H](CC(N)=O)c1cccc(Cl)c1 [I-104]	< 10 µM
CN(C)c1ccnc(N[C@@H]2CCCN(c3cccc(F)c3)C2)c1 [I-498]	10 to 100 µM

Consider now this further molecule.
Asked: Please tell me: Kd of COCCN(c1nccc(N2CCOCC2)n1)[C@@H]1CCCN(c2cccc(F)c2)C1 [I-40] , system DCAF1 WD40 domain (residues 1077-1390) (Homo sapiens, UniProt Q9Y4B6)?
Given back: 100 to 200 µM

###

# Target Under Test: DCAF1 WD40 domain (residues 1077-1390) (Homo sapiens)
# Construct: DCAF1 WD40 domain (residues 1077-1390)
# Assay Method Text: DCAF1 binding assay by SPR (Biacore 8K+), DCAF1-3 KD
# Condition Description: 25 °C, read-out: DCAF1-3 SPR (KD)
This section presents compounds with their documented Kd values.

In the examples that follow, each entry is paired with its recorded Kd.
Compound	Endpoint Value
Oc1ccc(N2CCOCC2)cc1N[C@@H]1CCCN(c2cccc(F)c2)C1 [I-325]	> 200 µM
OC[C@H]1C[C@@H](Nc2cc(N3CCCCC3)ccn2)CN(c2cccc(F)c2)C1 [I-936]	10 to 100 µM

Asked: Value lookup for Kd; key = Cc1ccc(N2CCC[C@@H](Nc3cc(N4CCOCC4)ccn3)C2)cc1 [I-509]
Given back: 10 to 100 µM

Asked: Value lookup for Kd; key = COCCOCCOCC[C@H]1CN(c2cc(N3CCCCC3)ccn2)[C@@H]2CCCN(c3cccc(F)c3)[C@H]12 [I-951]
Given back: < 10 µM

Asked: Value lookup for Kd; key = Fc1cccc(N2CCC[C@@H](Nc3nccc(N4CCCCC4)n3)C2)c1 [I-319]
Given back: 100 to 200 µM

###

# Target Under Test: DCAF1 WD40 domain (residues 1077-1390) (Homo sapiens)
# Construct: DCAF1 WD40 domain (residues 1077-1390)
# Assay Method Text: DCAF1 binding assay by SPR (Biacore 8K+), DCAF1-3 KD
# Condition Description: 25 °C, read-out: DCAF1-3 SPR (KD)
pKd: −log10 of the molar value.
This section presents compounds with their documented pKd values.

>>> print(df.to_string())
                                   compound  endpoint_value
0  NC[C@@H]1C[C@@H](Nc2cc(N3CCCCC3)ccn2)CN(c2cccc(F)c2)C1 [I-1040]    4.00 to 5.00
1  C[C@H]1CC[C@@H](c2[nH]ncc2C(=O)N[C@@H](CC(N)=O)c2cccc(Cl)c2)CC1 [I-742]          > 5.00
2  C=CC(=O)N1CCC(N(C)c2ccnc(N[C@@H]3CCCN(c4cccc(F)c4)C3)c2)C1 (some centres unmarked) [I-458]          < 3.70
3  c1ccc([C@@H]2CCC[C@H](Nc3cc(N4CCCCC4)ccn3)C2)cc1 [I-753]    4.00 to 5.00
4  c1cnc2c(N3CCC[C@@H](Nc4nccc(N5CCOCC5)n4)C3)cccc2c1 [I-30]    3.70 to 4.00
5  CCCN1CCN(c2ccnc(N[C@@H]3CCCN(c4cccc(F)c4)C3)n2)CC1 [I-317]          < 3.70

Asked: Value lookup for pKd; key = O=C1NCCc2c1cccc2N1CCC[C@@H](Nc2cc(N3CCOCC3)ccn2)C1 [I-778]
Given back: < 3.70

Asked: Value lookup for pKd; key = CC1CCN(c2ccnc(N[C@@H]3CCCN(c4cccc(F)c4)C3)c2)CC1 [I-571]
Given back: 4.00 to 5.00

Asked: Value lookup for pKd; key = Fc1cccc(N2CCC[C@@H](N(CC3CC3)c3nccc(N4CCOCC4)n3)C2)c1 [I-41]
Given back: 3.70 to 4.00

Asked: Value lookup for pKd; key = FC[C@@]1(Nc2cc(N3CCOCC3)ccn2)CCCN(c2cccc(F)c2)C1 [I-277]
Given back: < 3.70
